# assay-remarks: qHTS assay to test for compound auto fluorescence at 590 nm (red) in HepG2 cell free culture (AID 720684)
# condition-context: cell-free medium autofluorescence, red 540/590 nm; series mostly up to 46 µM
Active and inactive are the calls of the source. Calls come from the whole dose curve; as a rule, active = well fitted curve in the direction sought with a large enough effect in the repeat runs; inconclusive = weak or mixed curves; inactive = flat fitted curve, though single readings scatter.
reported-endpoint: outcome

Some solved cases for reference:
>>> value_observed("CCCCCCCCCCCCCC(=O)OCC(COP(=O)([O-])OCC[N+](C)(C)C)OC(=O)CCCCCCCCCCCCC (stereo not drawn)")
"inactive"
>>> value_observed("O=C(CCN1CCC(c2ccccc2)C1)c1ccc2c(c1)OCCO2 (stereo not drawn)")
"inactive"
>>> value_observed("NC(=O)C1c2ccccc2CCc2ccccc21")
"inactive"
>>> value_observed("COC(=O)[C@H]1[C@H]2C[C@H]3c4[nH]c5ccccc5c4CCN3C[C@H]2CC[C@@H]1O")
"inactive"
>>> value_observed("CC(C)C[C@@H](NC(=O)[C@@H](O)[C@H](N)Cc1ccccc1)C(=O)O")
"inactive"
>>> value_observed("CCCCCCCCCCCCN1CCCC1=O")
"inactive"
>>> value_observed("c1ccc2cc3c4ccccc4c4ccccc4c3cc2c1")
"inactive"
>>> value_observed("CO[C@H](C(=O)[C@@H](O)[C@@H](C)O)C1Cc2cc3cc(O[C@H]4C[C@@H](O[C@H]5C[C@@H](O)[C@H](O)[C@@H](C)O5)[C@@H](O)[C@@H](C)O4)c(C)c(O)c3c(O)c2C(=O)[C@H]1O[C@H]1C[C@@H](O[C@H]2C[C@@H](O[C@H]3C[C@](C)(O)[C@H](O)[C@@H](C)O3)[C@H](O)[C@@H](C)O2)[C@H](O)[C@@H](C)O1 (stereo partly drawn)")
"inactive"

Req: Read off the recorded outcome for CCN(CC)C(=O)[C@]1(c2ccccc2)C[C@@H]1CN
Resp: inactive

Req: Answer with reported outcome of NC(=O)c1cc[n+](CC2=C(C(=O)O)N3C(=O)[C@@H](NC(=O)C(c4ccccc4)S(=O)(=O)[O-])[C@H]3SC2)cc1 (stereo partly drawn)
Resp: inactive
